# protocol.notes: NCI Yeast Anticancer Drug Screen. Data for the mec2-1 strain (AID 157)
# condition: S. cerevisiae mec2-1 strain; at 50.0 µM unless noted
This is part of a sample that, as a whole, favours compounds with a hit. Of some 79,000 tested, about 15% had one in any assay. Calls of active or inactive are those of the source. Rule as the data show it: active = growth inhibition above about 70%; inactive = the rest.
Response enum: active, inactive

Examples with answers:
C/C(=N\NC(=S)N1CCCCCC1)c1nccnc1C    active
Cc1nc2c(cc1C(=O)NN)c(=O)n(C)c(=O)n2C    inactive
O=c1[nH]c(=O)c2[nH]c(Br)nc2[nH]1    inactive
CC(O)(c1ccccc1)c1ccccc1    inactive
CCOc1cc2c(cc1C(C)c1ccc(O)cc1)OCO2 (stereo not drawn)    active
Cc1cc(=O)n2nc(CSc3nnc(N)s3)sc2n1    inactive

Query: What classification did Cc1ccc(C)n1CCCCCCCn1c(C)ccc1C end up with in this test?
Reply: inactive

Query: Moving on to the next molecule: CNC(=O)OCc1c(COC(=O)NC)c(C)n(-c2ccc(Cl)cc2)c1C
Reply: inactive

Query: Moving on to the next molecule: Cc1c2cc[n+](C)c(C)c2cc2c1[nH]c1ccccc12
Reply: inactive

Query: Moving on to the next molecule: O=C(O)c1ccccc1Br
Reply: inactive

* * *

# protocol.notes: NCI Yeast Anticancer Drug Screen. Data for the bub3 strain (AID 167)
# condition: S. cerevisiae bub3 mutant strain, stronger effect = higher value; at 50.0 µM unless noted
Compounds without any hit were thinned out: in the full panel of roughly 79,000, 15% have a hit.
measured.endpoint: growth inhibition (%)
Numbers only; they are read as %.

COc1ccc(C(=O)CCC(=O)O)c(O)c1    -4.15
CCOC(=O)Nc1ccccc1OCC    6.2
CCOc1cccc(OCC)c1    1.4
O=C(O)/C=C1\NC(=O)NC1=O    5.75
Clc1cccc(C2SCc3nc4ccccc4n32)c1 (configuration not stated)    5.9
Nc1ncnc(N)c1NC(=O)c1ccc2ccccc2c1    -20.4
COC(=O)CCCCC(=O)OC    -9
CCOC(=O)Nc1ccc(F)cc1C    7.3

Query: Fill in: growth inhibition of CC(=O)Nc1ccc2ccccc2c1[N+](=O)[O-] is ___
Reply: -35.8

Query: Moving on to the next compound: O=c1[nH]c2cccc([N+](=O)[O-])c2c2ccccc12
Reply: -6.35

Query: Moving on to the next compound: O=P(O)(O)c1ccc(-c2ccc(I)cc2)cc1
Reply: -8.8

Query: Moving on to the next compound: COc1cc([C@@H]2c3cc4c(cc3[C@H](OC3OC5COC(c6ccco6)OC5C(O)C3O)C3COC(=O)[C@@H]32)OCO4)cc(OC)c1OC (some centres not stated)
Reply: 0.2

Query: Moving on to the next compound: CN(C)/N=C(\CBr)c1ccc([N+](=O)[O-])cc1
Reply: -3

Query: Moving on to the next compound: CS(=O)(=O)OC1Cc2ccccc2C1
Reply: -5

Query: Moving on to the next compound: Cc1[nH]c(=O)nc(N/N=C/c2ccc(Cl)cc2)c1C(=O)NC(C)(CO)CO
Reply: 16.7

* * *

# protocol.notes: NCI Yeast Anticancer Drug Screen. Data for the cln2 rad14 strain (AID 165);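 also: 0% = growth equal to vehicle treated cultures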
# condition: S. cerevisiae cln2 rad14 strain; at 50.0 µM unless noted
About 79,000 compounds went through this panel and 15% of them were active in at least one assay; those are over-represented in the sample as a whole. Active and inactive are the calls of the source. Cut-off read from the data, not from the text of the source: active = growth inhibition above about 70%; inactive = the rest.
Response enum: active, inactive

Examples with answers:
CCO[C@@H]1OC(=O)[C@H]2C(c3ccc(Cl)cc3)=NO[C@@H]12    inactive
C=CSS/C(=C/N(C=O)Cc1cnc(C)nc1N)CCO    inactive
CCOc1ccc(N2C(=O)/C(=C/c3ccc(N(CCC#N)CCC#N)cc3)N=C2c2cc([N+](=O)[O-])ccc2Cl)cc1    inactive

Query: What classification did CNC(=O)N(CCCC(NC(C)=O)C(=O)NCc1ccccc1)Cc1ccccc1 (stereo not given) end up with in this test?
Reply: inactive

Query: Moving on to the next molecule: Cc1cccc(C)c1NS(=O)(=O)c1ccc(Cl)cc1
Reply: active

Query: Moving on to the next molecule: COc1ccc(/C(C)=C\C(=O)O)cc1
Reply: inactive

Query: Moving on to the next molecule: CCc1nc(N)nc(N)c1-c1ccc(NC2CCCCC2)c([N+](=O)[O-])c1
Reply: inactive

Query: Moving on to the next molecule: O=[N+]([O-])c1ccc(S/N=C\c2ccccc2)c([N+](=O)[O-])c1
Reply: inactive

Query: Moving on to the next molecule: NNC(=O)CCC(=O)O
Reply: inactive

Query: Moving on to the next molecule: Cc1cc2c(C(C)C)c(O)c(O)c(C=NC(C)c3ccccc3)c2c(O)c1-c1c(C)cc2c(C(C)C)c(O)c(O)c(C=NC(C)c3ccccc3)c2c1O (stereo not given)
Reply: inactive

Measured values drawn from PubChem BioAssay (NCI) for this set.
